Target: T1, Anti-CD28 Fab (SEQ ID NOs: 696, 697)
T1 construct: Used biotinylated and captured on neutravidin coated plates in the phage ELISA
T1 sequence (VH, as listed by the source, chain 1 of 2): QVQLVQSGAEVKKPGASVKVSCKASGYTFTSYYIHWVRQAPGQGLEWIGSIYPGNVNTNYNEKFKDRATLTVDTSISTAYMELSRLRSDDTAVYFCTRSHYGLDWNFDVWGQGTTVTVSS
T1 sequence (VL, as listed by the source, chain 2 of 2): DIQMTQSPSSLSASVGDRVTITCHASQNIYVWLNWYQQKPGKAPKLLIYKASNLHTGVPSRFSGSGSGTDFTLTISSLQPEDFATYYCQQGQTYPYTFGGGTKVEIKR
Test: phage ELISA; Fab on plate pre-incubated with CD28 antigen as competitor, anti-M13 HRP detection
Where no end group is shown, it is not given here.
Each entry below carries its reported Phage binding ELISA, Anti-CD28 Fab signal in the presence of CD28.

Examples with their reported Phage binding ELISA, Anti-CD28 Fab signal in the presence of CD28 follow.
YCDGHTGVYKWKCI (cysteine pairing not given here; also: fused to phage pIII protein, pIII and linker sequence not given here, Peptide-87 library clone on clonal phage (crude supernatant); not shown: fused to the pIII filament protein of the bacteriophage) [Phage-1274]: 0.06
YCQGHALQYLQKCL (cysteine pairing not given here; also: fused to phage pIII protein, pIII and linker sequence not given here, Peptide-87 library clone on clonal phage (crude supernatant); not shown: fused to the pIII filament protein of the bacteriophage) [Phage-1282]: 0.08
YCDGHAGIYVLKCL (cysteine pairing not given here; also: fused to phage pIII protein, pIII and linker sequence not given here, Peptide-87 library clone on clonal phage (crude supernatant); not shown: fused to the pIII filament protein of the bacteriophage) [Phage-1276]: 0.08

Please report the recorded Phage binding ELISA, Anti-CD28 Fab signal in the presence of CD28 for YCAGHMPQYMSKCL (cysteine pairing not given here; also: fused to phage pIII protein, pIII and linker sequence not given here, Peptide-87 library clone on clonal phage (crude supernatant); not shown: fused to the pIII filament protein of the bacteriophage) [Phage-1281] . 0.05
